The measured values listed here are drawn from the RNAGym collection of RNA variant scans (doi:10.7554/elife.90254).

B1: OR4K15 (parent)
chain: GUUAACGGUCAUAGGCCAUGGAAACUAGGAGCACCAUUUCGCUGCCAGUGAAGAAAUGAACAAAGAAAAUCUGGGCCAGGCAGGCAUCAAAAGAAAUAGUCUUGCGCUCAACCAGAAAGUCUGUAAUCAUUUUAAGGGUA

Variants of: B1
Experiment: self-cleavage, relative activity (ratio to wild type); higher = more cleavage; in vitro, sequencing; the parent is a self-cleaving ribozyme
Provide the recorded self-cleavage for the entries that follow.
Respond numerically, and do not add a unit to the figure.

Qu. Returns the measured self-cleavage for the input variant. Input: U70C A98U
Ans. 0.72

Qu. Now the variant A69G U100C
Ans. 2.43

Qu. Now the variant U124C U130C
Ans. 0.57

Qu. Now the variant A13G A92G
Ans. 1.22

Qu. Now the variant `U37A`
Ans. 1.27

Qu. Now the variant A59G A129G
Ans. 1.16

Qu. Now the variant A51U A59G
Ans. 0.95

Qu. Now the variant A67G C121A
Ans. 2.73

Qu. Now the variant A4C A62G
Ans. 0.88

Qu. Now the variant C81U A134G
Ans. 0.53

Qu. Now the variant A98U U100C
Ans. 2.47

Qu. Now the variant U43A U70C
Ans. 0.98

Qu. Now the variant U57C U122C
Ans. 0.84

Qu. Now the variant A47U U102G
Ans. 0.28

Qu. Now the variant U19A A52G
Ans. 1.35

Qu. Now the variant A82C G119A
Ans. 0.17

Qu. Now the variant A27U G53A
Ans. 1.86

Qu. Now the variant U70C G104A
Ans. 0.03

Qu. Now the variant A30G A33G
Ans. 1.17

Qu. Now the variant A22G A23G
Ans. 1.09

Qu. Now the variant A22U A68G
Ans. 0.93

Qu. Now the variant U9G A117G
Ans. 2.41

Qu. Now the variant A22U A117G
Ans. 1.06

Qu. Now the variant C71G U87A
Ans. 0.21

Qu. Now the variant A125G U127C
Ans. 0.27

Qu. Now the variant A24G A111G
Ans. 0.03

Qu. Now the variant A63G A116G
Ans. 1.17

Qu. Now the variant A23G A62U
Ans. 1.09

Qu. Now the variant A18U U49A
Ans. 1.67

Qu. Now the variant A23G A69G
Ans. 0.91

Qu. Now the variant U19C A96U
Ans. 1.51

Qu. Now the variant A47G A60G
Ans. 0.74

Qu. Now the variant A33U A96G
Ans. 0.16

Qu. Now the variant A30G A110G
Ans. 0.15

Qu. Now the variant U3C A62U
Ans. 1.22

Qu. Now the variant A90U U120C
Ans. 1.63

Qu. Now the variant U39A A118G
Ans. 1.28

Qu. Now the variant U19A A78G
Ans. 0.31

Qu. Now the variant U26C U130C
Ans. 0.3

Qu. Now the variant U49C U87A
Ans. 2.09

Qu. Now the variant G79C U97A
Ans. 0.05

Qu. Now the variant A18G A22G
Ans. 1.01

Qu. Now the variant G80A A90G
Ans. 0.18

Qu. Now the variant G106A A110G
Ans. 0.01

Qu. Now the variant A111G G136U
Ans. 0.02

Qu. Now the variant A18G A54U
Ans. 1.25
